Test system: Zea mays (ZEAMX)
MEASUREMENT NOTES: Pre-emergence Test, Zea mays (ZEAMX)
Assay type: in vivo
RUN CONDITIONS: 250 g/Ha (*), evaluated after 13 days
ENDPOINT LABEL: Pre-emergence Test ZEAMX, percentage damage caused to the plant (five-point scale)

[
  {
    "SUBSTANCE SMILES": "CCn1c(Cn2cnc3ncccc32)cc(=O)c(C(=O)O)c1-c1ccc(Cl)c(Cl)c1",
    "ENDPOINT VALUE": 0
  },
  {
    "SUBSTANCE SMILES": "CCn1c(Cn2nccc2COC)cc(=O)c(C(=O)O)c1-c1ccc(Cl)c(Cl)c1",
    "ENDPOINT VALUE": "1 (1=0-20%)"
  },
  {
    "SUBSTANCE SMILES": "CCn1c(Cn2cc3c(n2)COC3)cc(=O)c(C(=O)O)c1-c1ccc(Cl)c(Cl)c1",
    "ENDPOINT VALUE": 0
  },
  {
    "SUBSTANCE SMILES": "CCn1c(Cn2cc([N+](=O)[O-])c(C)n2)cc(=O)c(C(=O)O)c1-c1ccc(Cl)c(Cl)c1",
    "ENDPOINT VALUE": 0
  },
  {
    "SUBSTANCE SMILES": "CCn1c(Cn2nc(C(F)(F)F)cc2OC(F)F)cc(=O)c(C(=O)O)c1-c1ccc(Cl)c(Cl)c1",
    "ENDPOINT VALUE": "2 (2=21-40%)"
  },
  {
    "SUBSTANCE SMILES": "CCn1c(Cn2nc(Cl)cc2Cl)cc(=O)c(C(=O)O)c1-c1ccc(Cl)c(Cl)c1",
    "ENDPOINT VALUE": 0
  },
  {
    "SUBSTANCE SMILES": "CCOC(=O)c1c(C)cnn1Cc1cc(=O)c(C(=O)O)c(-c2ccc(Cl)c(Cl)c2)n1CC",
    "ENDPOINT VALUE": 0
  },
  {
    "SUBSTANCE SMILES": "CCn1c(Cn2ncc3cnc(Cl)cc32)cc(=O)c(C(=O)O)c1-c1ccc(Cl)c(Cl)c1",
    "ENDPOINT VALUE": 0
  },
  {
    "SUBSTANCE SMILES": "CCn1c(Cn2cncc2Cl)cc(=O)c(C(=O)O)c1-c1ccc(Cl)c(Cl)c1",
    "ENDPOINT VALUE": 0
  },
  {
    "SUBSTANCE SMILES": "CCCOc1ccn(Cc2cc(=O)c(C(=O)O)c(-c3ccc(Cl)c(Cl)c3)n2CC)n1",
    "ENDPOINT VALUE": 0
  },
  {
    "SUBSTANCE SMILES": "CCn1c(Cn2ccc(Cl)n2)cc(=O)c(C(=O)O)c1-c1ccc(Cl)c(Cl)c1",
    "ENDPOINT VALUE": "1 (1=0-20%)"
  },
  {
    "SUBSTANCE SMILES": "CCn1c(Cn2ccc([N+](=O)[O-])n2)cc(=O)c(C(=O)O)c1-c1ccc(Cl)c(Cl)c1",
    "ENDPOINT VALUE": 0
  },
  {
    "SUBSTANCE SMILES": "CCn1c(Cn2ccc(C(F)(F)F)n2)c(-c2ccc(Cl)cc2)c(=O)c(C(=O)O)c1-c1ccc(Cl)c(Cl)c1",
    "ENDPOINT VALUE": 0
  },
  {
    "SUBSTANCE SMILES": "CCn1c(Cn2ccc(Br)n2)cc(=O)c(C(=O)O)c1-c1ccc(Cl)c(Cl)c1",
    "ENDPOINT VALUE": 0
  },
  {
    "SUBSTANCE SMILES": "CCOc1ccn(Cc2cc(=O)c(C(=O)O)c(-c3ccc(Cl)c(Cl)c3)n2CC)n1",
    "ENDPOINT VALUE": "1 (1=0-20%)"
  },
  {
    "SUBSTANCE SMILES": "CCn1c(Cn2ncc(C(F)(F)F)n2)cc(=O)c(C(=O)O)c1-c1ccc(Cl)c(Cl)c1",
    "ENDPOINT VALUE": "4 (4=61-80%)"
  },
  {
    "SUBSTANCE SMILES": "CCn1c(Cn2ccc(C(F)F)n2)cc(=O)c(C(=O)O)c1-c1ccc(Cl)c(Cl)c1",
    "ENDPOINT VALUE": 0
  },
  {
    "SUBSTANCE SMILES": "CCn1c(Cn2nc(C(F)(F)F)cc2Cl)cc(=O)c(C(=O)O)c1-c1ccc(Cl)c(Cl)c1",
    "ENDPOINT VALUE": 0
  },
  {
    "SUBSTANCE SMILES": "CCn1c(Cn2cnc(Cl)n2)cc(=O)c(C(=O)O)c1-c1ccc(Cl)c(Cl)c1",
    "ENDPOINT VALUE": 0
  },
  {
    "SUBSTANCE SMILES": "CCn1c(Cn2ccc(OCCOC)n2)cc(=O)c(C(=O)O)c1-c1ccc(Cl)c(Cl)c1",
    "ENDPOINT VALUE": 0
  },
  {
    "SUBSTANCE SMILES": "CCn1c(Cn2ccc(OCC(F)F)n2)cc(=O)c(C(=O)O)c1-c1ccc(Cl)c(Cl)c1",
    "ENDPOINT VALUE": "1 (1=0-20%)"
  },
  {
    "SUBSTANCE SMILES": "CCn1c(Cn2ccc(C(F)(F)F)n2)cc(=O)c(C(=O)OC)c1-c1ccc(Cl)cc1",
    "ENDPOINT VALUE": 0
  },
  {
    "SUBSTANCE SMILES": "CCn1c(Cn2nc(Cl)cc2C(F)(F)F)cc(=O)c(C(=O)O)c1-c1ccc(Cl)c(Cl)c1",
    "ENDPOINT VALUE": "2 (2=21-40%)"
  },
  {
    "SUBSTANCE SMILES": "CCn1c(Cn2ccc(/C=N/OC)n2)cc(=O)c(C(=O)O)c1-c1ccc(Cl)c(Cl)c1",
    "ENDPOINT VALUE": "1 (1=0-20%)"
  },
  {
    "SUBSTANCE SMILES": "CCn1c(Cn2ccc(Cl)n2)cc(=O)c(C(=O)O)c1-c1ccc(C#N)c(Cl)c1",
    "ENDPOINT VALUE": 0
  },
  {
    "SUBSTANCE SMILES": "CCn1c(Cn2ccc(OCC(F)(F)F)n2)cc(=O)c(C(=O)O)c1-c1ccc(Cl)c(Cl)c1",
    "ENDPOINT VALUE": 0
  },
  {
    "SUBSTANCE SMILES": "CCn1c(Cn2ccc(C3CC3)n2)cc(=O)c(C(=O)O)c1-c1ccc(Cl)c(Cl)c1",
    "ENDPOINT VALUE": 0
  },
  {
    "SUBSTANCE SMILES": "CCn1c(Cn2ccc(F)n2)cc(=O)c(C(=O)O)c1-c1ccc(Cl)c(Cl)c1",
    "ENDPOINT VALUE": 0
  },
  {
    "SUBSTANCE SMILES": "CCn1c(Cn2ncnc2OC)cc(=O)c(C(=O)O)c1-c1ccc(Cl)c(Cl)c1",
    "ENDPOINT VALUE": 0
  },
  {
    "SUBSTANCE SMILES": "CCn1c(Cn2nccc2C#N)cc(=O)c(C(=O)O)c1-c1ccc(Cl)c(Cl)c1",
    "ENDPOINT VALUE": 0
  },
  {
    "SUBSTANCE SMILES": "CCn1c(Cn2cncc2C(F)(F)F)cc(=O)c(C(=O)O)c1-c1ccc(Cl)c(Cl)c1",
    "ENDPOINT VALUE": 0
  },
  {
    "SUBSTANCE SMILES": "CCn1c(Cn2nccc2Cl)cc(=O)c(C(=O)O)c1-c1ccc(Cl)c(Cl)c1",
    "ENDPOINT VALUE": 0
  }
]
